Recorded values, source patent US7199147B2.

In this section we review reported melting point values for a set of compounds.

Below: 5 compounds and their reported melting point.
# COMPOUND, VAL
records = [
    ("Cl.Cl.c1cc2[nH]ncc2cc1NC1CN2CCC1CC2 (stereo not shown)", "184 to 188 °C"),
    ("N[C@H]1CCC[C@H](Oc2ccc3[nH]ncc3c2)C1 (relative stereo)", "179 to 180 °C"),
    ("c1ccc(CN2CCN(c3ccc4[nH]ncc4c3)CC2)cc1", "196 to 198 °C (dec.)"),
    ("NCc1cccc(COc2ccc3[nH]ncc3c2)c1", "179 to 183 °C"),
    ("O=C(NC1CCN(Cc2ccccc2)C1)c1ccc2[nH]ncc2c1 (stereo not shown)", "187 to 189 °C"),
]

Requested field: melting point. Item: `O=C(c1ccc2[nH]ncc2c1)N1CCNCC1`
190 to 191 °C

Requested field: melting point. Item: CCCCC(=O)N[C@H]1CCC[C@@H](Oc2ccc3[nH]ncc3c2C)C1 (relative stereo)
190 to 193 °C

Requested field: melting point. Item: `c1cc2[nH]ncc2cc1OC1CCCCC1`
144 to 146 °C
